Target: T1, human CX3CR1 (human, UniProt P49238 1-355)
T1 construct: overexpressed on CHO, BA/F3 or HEK293T cells; also called huCX3CR1; hCX3CR1
T1 sequence: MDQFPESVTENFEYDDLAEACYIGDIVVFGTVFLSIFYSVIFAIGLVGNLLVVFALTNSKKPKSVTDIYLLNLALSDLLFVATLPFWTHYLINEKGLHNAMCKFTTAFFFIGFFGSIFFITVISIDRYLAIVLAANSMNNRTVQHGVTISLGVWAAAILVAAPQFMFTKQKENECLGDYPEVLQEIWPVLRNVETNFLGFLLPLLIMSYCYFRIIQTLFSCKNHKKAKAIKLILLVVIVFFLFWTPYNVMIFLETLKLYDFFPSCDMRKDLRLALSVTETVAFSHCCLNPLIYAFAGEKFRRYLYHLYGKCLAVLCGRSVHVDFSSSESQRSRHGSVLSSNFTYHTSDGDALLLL
Test: A647-fractalkine competition FACS, HEK293-huCX3CR1
The following binders are listed with their measured IC50 values.
Report the figure in nM without appending any unit label.

Solved cases (4 shown):
Binder: CX3CR1BIIPMP54A4 (VHH, also called 54A04; not shown: C-terminal c-myc and His6 tags) VHH: EVQLVESGRGSVQAGESLRLSCAASGSIFSSNAMAWYRQAPGKQRDLVAGINSVGITKYADSVKGRFTISRDNAKNTVYLQMNSLKPEDTAVYYCTSDPRRGWDTRYWGQGTQVTVSS
Reported result: 49
--
Binder: CX3CR1BIIPMP66G01 (VHH, also called CX3CR1BII66G01; not shown: C-terminal c-myc and His6 tags) VHH: EMQLVESGGGSVQAGESLRLSCAASGSIFSSNAMAWYRQAPGKQRDLVALINSVGITKYADSVKGRFTISRDNAKNTVYLQMNSLKPEDTAVYYCTSDGRRGWDTRYWGQGTQVTVSS
Reported result: 14
--
Binder: CX3CR1BIIPMP54G3 (VHH, also called 54G03; not shown: C-terminal c-myc and His6 tags) VHH: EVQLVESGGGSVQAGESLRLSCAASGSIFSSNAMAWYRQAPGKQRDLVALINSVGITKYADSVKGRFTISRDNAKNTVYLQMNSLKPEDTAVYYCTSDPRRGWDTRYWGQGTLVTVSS
Reported result: 270
--
Binder: CX3CR1BIIPMP66B02 (VHH, alexa647 label where used as labeled competitor (Table 23), also called CX3CR1BII66B02; C100CX3CR1BII66B02; not shown: C-terminal c-myc and His6 tags) VHH: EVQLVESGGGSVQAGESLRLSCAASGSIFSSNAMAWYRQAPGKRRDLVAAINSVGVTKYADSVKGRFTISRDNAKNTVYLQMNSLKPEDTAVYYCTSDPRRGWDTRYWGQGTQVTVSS
Reported result: 2.5

In: What value of measured IC50 is listed for CX3CR1BIIPMP54H1 (VHH, also called 54H01; not shown: C-terminal c-myc and His6 tags) VHH: EVQLVESGGGSVQAGESLRLSCAASGTIFSSNAMAWYRQAPGKQRDLVAGINSVDITKYADSVKGRFTVSRDNAKNTVYLQMNSLKPEDTAVYYCTSDPRRGWNTRYWGQGTQVTVSS ?
Out: 10
